Biological target: T1, Peptide 4: Biotin-AGGGGSGGGGSGGGGSAAA-Tyr-acid (N-terminal biotin; C-terminal acid; no PC)
T1 construct: control peptide without PC
T1 peptide: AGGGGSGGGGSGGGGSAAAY
Assay: scFv ELISA
Procedure: For ELISA analysis of scFv binding, 96-well polystyrene plates were coated with Peptide 1, 4, 5, 8 or 100 μL BSA (10 μg/mL) in PBS at 4° C. overnight. […] All plates were washed three times with PBS-Tween before 40 μL aliquots of PPE were added to assay plates along with 50 μL 10% BSA, and plates were incubated for 1 hour at room temperature. […] The amount of scFv bound to each well was quantitated from absorbance measurement at 450 nm (OD450).
Collected OD450 values appear next to each entry.
Please format your answer as a value with the unit trailing.

For orientation, consider the following solved cases.
Per the record, PcOxP_DB04_A10 (scFv, V domains shown, scFv in periplasmic extract) VH: EVQLLESGGGLVQPGGSLRLSCAASGDTFSDFYMEWVRQAPGKGLEWVAASRNKWNDYTTEYADSVKGRFTISRDNSKNTLYLQMNSLRAEDTAVYYCARDYYGSSYWYFDVWGQGTLVTVSS VL: DIQMTQSPSSLSASVGDRVTITCTASESLYSSKHKVHYLAWYQQKPGKAPKLLIYGASNRQIGVPSRFSGSGSGTDFTLTISSLQPEDFATYYCAQFYSYPLTFGGGTKVEIK has OD450 of 0.06 OD450

The binder listed as PcOxP_DB01_F12 (scFv, V domains shown, scFv in periplasmic extract) VH: EVQLLESGGGLVQPGGSLRLSCAASGFTHSDFYMEWVRQAPGKGLEWVAASRNKANGYTTEYADSVKGRFTISRDNSKNTLYLQMNSLRAEDTAVYYCARDYYGSSYWYFDSWGQGTLVTVSS VL: DIVMTQSPDSLAVSLGERATINCTASESLYSSKHKVHYLAWYQQKPGQPPKLLIYGASNRYVGVPDRFSGSGSGTDFTLTISSLQAEDVAVYYCAQFYSYPLTFGGGTKVEIK has a reported OD450 of 0.05 OD450

Kindly consider the entry below.
Input PcOxP_DB02_E03 (scFv, V domains shown, scFv in periplasmic extract) VH: EVQLLESGGGLVQPGGSLRLSCAASGFTFSDYYMEWVRQAPGKGLEWVAASRWKANDYTTEYADSVKGRFTISRDNSKNTLYLQMNSLRAEDTAVYYCARDYYGSSQWYFDVWGQGTLVTVSS VL: DIVMTQSPDSLAVSLGERATINCTASESLYSSKHKKNYLAWYQQKPGQPPKLLIYGASWRYIGVPDRFSGSGSGTDFTLTISSLQAEDVAVYYCAQFYSYPLTFGGGTKVEIK . Output OD450: 0.04 OD450

# credit: patent US20250320312A1
